# tested-on: APOL1 (Homo sapiens, UniProt O14791)
# procedure-details: MultiTox-Fluor Multiplex Cytotoxicity Assay in tet-inducible APOL1 T-REx-HEK293 cells (cell rescue, ratio of dead to live cells)
# condition-context: tet-inducible transgenic APOL1 T-REx-HEK293 cell lines, 50 ng/mL tet, 24 hours; read-out: IP50 (i.e., IC50 for cell proliferation)
I'd be grateful if you could share measured IC50 for these entries.

Request: // returns reported IC50 for input COCc1c(C(F)F)sc2c1CCO[C@@]21CCN(Cc2cnn(CCS(C)(=O)=O)c2)[C@@H](C)C1 [Compound 763]
Result: < 100 nM

Request: Cool, now CCc1cc2c(s1)CCO[C@@]21CCN(C[C@H]2C[C@@H](NC(=O)c3ccn(CC(C)C)n3)C2)[C@@H](C)C1 [Compound 317]
Result: 100 to 500 nM

Request: Cool, now C[C@H]1C[C@@]2(CCN1Cc1cnn(C[C@H](O)CO)c1)OCCc1c2sc(C(F)(F)F)c1CO [Compound 899]
Result: 100 to 500 nM

Request: Cool, now C[C@H]1C[C@@]2(CCN1Cc1cnn(CC(C)(O)C(F)F)c1)OCCc1c2sc(C(F)(F)F)c1CO (stereo partly shown) [Compound 953]
Result: < 100 nM

Request: Cool, now COc1ccc(CN2CC[C@]3(C[C@@H]2C)OCCc2cc(Cl)sc23)cn1 [Compound 662]
Result: < 100 nM

Request: Cool, now CCc1cc2c(s1)CCO[C@@]21CCN(Cc2cn(C3CC(O)C3)nn2)[C@@H](C)C1 (stereo partly shown) [Compound 152]
Result: 100 to 500 nM

Request: Cool, now CCc1cc2c(s1)CCO[C@@]21CCN(C[C@H]2C[C@@H](NC(=O)c3cnc(C)nc3)C2)[C@@H](C)C1 [Compound 329]
Result: 100 to 500 nM

* * *

# tested-on: APOL1 (Homo sapiens, UniProt O14791)
# Sequence (O14791 1-398 S342G/I384M): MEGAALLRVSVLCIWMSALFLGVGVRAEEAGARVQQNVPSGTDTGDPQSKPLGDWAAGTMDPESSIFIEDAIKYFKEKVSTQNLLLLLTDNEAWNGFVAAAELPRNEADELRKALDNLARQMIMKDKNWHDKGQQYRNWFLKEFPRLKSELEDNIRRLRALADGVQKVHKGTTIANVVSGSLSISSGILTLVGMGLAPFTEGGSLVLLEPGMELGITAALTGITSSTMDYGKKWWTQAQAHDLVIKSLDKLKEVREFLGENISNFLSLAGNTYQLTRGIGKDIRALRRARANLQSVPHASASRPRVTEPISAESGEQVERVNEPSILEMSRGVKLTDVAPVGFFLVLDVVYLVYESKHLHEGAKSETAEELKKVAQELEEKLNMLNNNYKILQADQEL
# procedure-details: MultiTox-Fluor Multiplex Cytotoxicity Assay in tet-inducible APOL1 T-REx-HEK293 cells (cell rescue, ratio of dead to live cells)
# condition-context: tet-inducible transgenic APOL1 T-REx-HEK293 cell lines, 50 ng/mL tet, 24 hours; read-out: IP50 (i.e., IC50 for cell proliferation)
readout: IC50

Request: IC50 of CCc1cc2c(s1)CCO[C@@]21CCN(C[C@H]2C[C@@H](NC(=O)CC#N)C2)[C@@H](C)C1 [Compound 334] on APOL1 (Homo sapiens, UniProt O14791)?
Result: 100 to 500 nM

Request: Cool, now CCc1cc2c(s1)CCOC21CCN(Cc2cn(CC(=O)NCCC(F)(F)F)nn2)CC1 [Compound 1096]
Result: 500 to 1000 nM

Request: Cool, now CCc1cc2c(s1)CCO[C@@]21CCN(CC2CN(C(=O)[C@@H](C)NS(C)(=O)=O)C2)[C@@H](C)C1 [Compound 473]
Result: 100 to 500 nM

Request: Cool, now CCc1cc2c(s1)CCO[C@@]21CCN(CC(O)C(F)(F)F)[C@@H](C)C1 (stereo partly drawn) [Compound 241]
Result: 100 to 500 nM

Request: Cool, now CC(=O)N[C@H]1C[C@@H](CN2CC[C@]3(C[C@@H]2C)OCCc2cc(CC(F)F)sc23)C1 [Compound 558]
Result: < 100 nM

Request: Cool, now C[C@H]1C[C@@]2(CCN1Cc1cn(CCS(C)(=O)=O)nn1)OCC(O)c1cc(Cl)sc12 (stereo partly drawn) [Compound 823]
Result: 100 to 500 nM

Request: Cool, now CCc1cc2c(s1)CCO[C@@]21CCN(C[C@H]2C[C@@H](NC(=O)c3cnc4c(c3)CCC4)C2)[C@@H](C)C1 [Compound 316]
Result: < 100 nM

Request: Cool, now CCc1cc2c(s1)CCOC21CCN(Cc2ccc(C(=O)NC(C)(CC)CO)nc2)CC1 (stereo not drawn) [Compound 1045]
Result: < 100 nM

Request: Cool, now C[C@H]1C[C@@]2(CCN1Cc1cnn(CCS(C)(=O)=O)c1)OCCc1cc(C3CCC3)sc12 [Compound 1033]
Result: < 100 nM

Request: Cool, now C[C@H]1C[C@@]2(CCN1C1CCCC1O)OCCc1cc(CC(F)F)sc12 (stereo partly drawn) [Compound 604]
Result: 100 to 500 nM

Request: Cool, now CCc1cc2c(s1)CCO[C@@]21CCN(CC(O)c2ccc(F)cc2)[C@@H](C)C1 (stereo partly drawn) [Compound 249]
Result: < 100 nM

Request: Cool, now CCc1cc2c(s1)CCO[C@@]21CCN(C[C@H]2C[C@@H](NC(=O)Oc3ccc(F)cc3)C2)[C@@H](C)C1 [Compound 377]
Result: < 100 nM

Request: Cool, now C[C@H]1C[C@@]2(CCN1Cc1cnn(CCS(C)(=O)=O)c1)OCCc1cc(C3CC3)sc12 [Compound 1034]
Result: < 100 nM

Request: Cool, now C[C@H]1C[C@@]2(CCN1Cc1cnn(CC3CNC(=O)C3)c1)OCCc1c2sc(C(F)(F)F)c1CO (stereo partly drawn) [Compound 921]
Result: < 100 nM

Request: Cool, now COCCN1CC[C@]2(C[C@@H]1C)OCCc1cc(CC(F)F)sc12 [Compound 614]
Result: 100 to 500 nM
